- Tested on: LOX IMVI melanoma
- assay procedure: NCI tumour cell line growth inhibition, 48 h
assay readout: GI50

• Clc1cc2c(c(CSc3nc4ccccc4n4cccc34)c1)OCOC2 = > 100 µM
• COc1cc(C(=O)N2CCN(C(=O)c3cc(OC)c(OC)c(OC)c3)C2=S)cc(OC)c1OC = 15.4 µM
• O=C(Nc1ccc(Br)cc1F)c1cc(Cl)ccc1O = 0.501 µM

###

- System: HOP-92 NSCLC
- assay procedure: NCI tumour cell line growth inhibition, 48 h
Please note: Criterion met applies when TGI is 8 µM or greater, and Criterion not met applies otherwise.

• CN1CCN(c2ccc(Nc3cc(-c4cccc(-n5ccc6cc(C7CC7)cc(F)c6c5=O)c4CO)cn(C)c3=O)nc2)CC1 = Criterion met
• CCC[CH2][Sn]([CH2]CCC)([O]C(=O)c1ccc(OC)c(OC)c1OC)[O][Sn]([CH2]CCC)([CH2]CCC)[O]C(=O)c1ccc(OC)c(OC)c1OC = Criterion not met
• C[n+]1c(/C=C/c2c(O)ccc3ccccc23)ccc2ccccc21 = Criterion not met
• O=C(CC1C(=O)Nc2ccccc2S1=O)Nc1cc(Cl)ccc1Cl (stereo not given) = Criterion met
• Cc1ccc(/C=N\NC2c3cc(Cl)ccc3Nc3nc(=O)[nH]c(C)c32)cc1 (stereo not given) = Criterion met
• C[N+](C)([O-])CCOc1cc2c(c3ccccc13)-c1ccccc1C2=O = Criterion met
• CC(C)(C)c1cc(C(P(=O)(O)O)P(=O)(O)O)cc(C(C)(C)C)c1O = Criterion met
• CCOC(=O)Nc1cc2c(c(N)n1)N=C(c1ccccc1)CO2 = Criterion met
• Nc1c(C(=O)N/N=C/c2ccccc2)sc(=S)n1-c1ccccc1 = Criterion met
• O=C(Nc1cccc(Cl)c1)C(=O)C(C(=O)c1ccc2ccccc2c1)C1OC(=O)c2ccccc21 (stereo not given) = Criterion met

###

- Tested on: HOP-92 NSCLC
- assay procedure: NCI tumour cell line growth inhibition, 48 h
assay readout: TGI

• CSc1cc(-c2cccs2)sc1-c1cc(SC)c(-c2sc(-c3sc(-c4cccs4)cc3SC)cc2SC)s1 = > 100 µM
• N[C@@H](Cc1ccccc1)C(=O)N1CCC[C@@H]1P(=O)(Oc1ccccc1)Oc1ccccc1 = > 100 µM
• CC1(C)CC(=O)C(C(CC(c2ccccc2)c2cc3c(cc2O)OCO3)C2=C(O)CC(C)(C)CC2=O)=C(O)C1 (stereo not given) = > 10 µM
• O=C1c2ccccc2C(=O)N1n1c(Cc2ccc([N+](=O)[O-])cc2)n[nH]c1=O = > 100 µM
• C[C@@H]1C[C@@H]([C@@H](CC2CC(=O)NC(=O)C2)OC(=O)CC(=O)c2ccccc2)C(=O)[C@@H](C)C1 = > 24.9 µM

###

- System: NCI-H23 lung
- assay procedure: NCI tumour cell line growth inhibition, 48 h
assay readout: TGI

• CC1=CCC([C@@](C)(O)CCCC(C)(C)N=C=S)CC1 (stereo partly specified) = 38.5 µM
• COC(=O)[C@]12CC[C@@H](C)[C@H](C)[C@@H]1C1=CC[C@@H]3[C@@]4(C)C[C@@H](O)[C@H](O)[C@@](C)(CO)C4=CC[C@@]3(C)[C@]1(C)CC2 = 33.6 µM
• COc1cc2c(cc1OC)C1C3CCCCC3CCN1CC2 (stereo unspecified) = > 100 µM
• CCN1CN(c2ccccc2)C2(CCN(CC3COc4ccccc4O3)CC2)C1=O (stereo unspecified) = > 100 µM
• NCCCN1c2ccccc2Sc2ccc(Cl)cc21 = > 10 µM
• COc1cc(OC)cc(C(=O)CC(=O)c2cc(OC)cc(OC)c2)c1 = > 100 µM
• CCCCCC#CCOC(=O)C(=[N+]=[N-])P(=O)(c1ccccc1)c1ccccc1 = > 10 µM
• COc1cc(OC)c2c(=O)cc(-c3ccc(OC)c(OC)c3OC)oc2c1 = > 100 µM
• Cc1ccc(C)c(NC(=O)c2cccc([N+](=O)[O-])c2O)c1 = 49 µM
• NS(=O)(=O)c1ccc(N=Nc2c(O)c(C(=O)O)cc3ccccc23)cc1 = > 100 µM
• Cc1nc(C)c(C(=O)NNC(=O)C[N+](C)(C)C)cc1C(=O)NNC(=O)C[N+](C)(C)C = > 100 µM
• NC(N)=N/N=C/c1c(Cl)cccc1Cl = > 100 µM
• Cc1cc(/N=C/c2ccc(N(C)C)cc2)n(-c2ccccc2)n1 = > 100 µM
• Cc1nc(Nc2cccnc2)sc1C(=O)/C=C/c1ccc(F)cc1 = 20.7 µM
• N[C@@H](Cc1ccccc1)C(=O)N1CCC[C@@H]1P(=O)(Oc1ccccc1)Oc1ccccc1 = > 100 µM
• Cc1c(N(C)C)ccc2c(=O)c3cccc(CC(=O)O)c3oc12 = > 100 µM
